species: Homo sapiens; experiment: Inhibition of VEGFR (unknown origin) using [33P]-ATP as substrate at 10 uM after 30 mins by scintillation counting analysis relative to control
quantity-measured: inhibition (%)

I. N=c1c2c([nH]c(=O)n1-c1ccccc1)N(c1ccccc1)C(=O)N1CCCC21 (centres undefined)
II. N#CCC(=O)NC1=C(C#N)C2CCCN2C(=O)N1c1ccccc1 (centres undefined)
III. O=C1N(c2ccccc2)c2nc[nH]c(=O)c2C2CCCCCN12 (centres undefined)
IV. N#CC1=C(N2C(=O)C(=O)N(c3ccccc3)C2=O)N(c2ccccc2)C(=O)N2CCCC12 (centres undefined)
// TODO: order the 4 compounds above by inhibition, descending Response format: the labels, sorted as the prompt asks.
IV, I, III, II
(IV: 25%, I: 11%, III: 3%, II: 0%)
